Test system: Providencia sp. Pv 16
test.method.notes: MIC, standard serial dilution method
Type: cell-based
conditions: SP.PV16, resistance mechanism AAC(2'), Mueller-Hinton agar, 37° C
Measured log10(MIC) accompanies every entry in the list below.
measure.name: log10(MIC) (log10 of the value in µg/mL)

compound	tested.target	log10(MIC)
NCC[C@H](O)C(=O)N[C@@H]1C[C@H](N)[C@@H](O[C@H]2O[C@H](CN)CC[C@H]2N)C(F)(F)[C@H]1O[C@H]1O[C@H](CO)[C@@H](O)[C@H](N)[C@H]1O	Providencia sp. Pv 16	-0.11
NCC[C@H](O)C(=O)N[C@@H]1C[C@H](N)[C@@H](O[C@H]2O[C@H](CN)CC[C@H]2N)[C@H](F)[C@H]1O[C@H]1O[C@H](CO)[C@@H](O)[C@H](N)[C@H]1O [Compound 5F-DKB-AHB, reference compound]	Providencia sp. Pv 16	-0.41
NC[C@H]1O[C@H](O[C@H]2[C@H](F)[C@@H](O[C@H]3O[C@H](CO)[C@@H](O)[C@H](N)[C@H]3O)[C@H](N)C[C@@H]2N)[C@H](N)C[C@@H]1O [Compound 5F-TOB, 5,3'-dideoxy-5-fluorokanamycin B, reference compound]	Providencia sp. Pv 16	0.49
CN[C@@H]1[C@@H](O)[C@@H](O[C@H]2[C@H](N)C[C@H](N)[C@@H](O[C@H]3O[C@H](CN)CC[C@H]3N)C2(F)F)OC[C@]1(C)O	Providencia sp. Pv 16	1.10
CCN[C@@H]1C[C@H](N)[C@@H](O[C@H]2OC(CN)=CC[C@H]2N)[C@H](O)[C@H]1O[C@H]1OC[C@](C)(O)[C@H](NC)[C@H]1O [Netilmicin, netilmicin, reference compound]	Providencia sp. Pv 16	0.80
CN[C@@H]1[C@@H](O)[C@@H](O[C@@H]2[C@@H](O)[C@H](O[C@H]3O[C@H]([C@@H](C)NC)CC[C@H]3N)[C@@H](N)C[C@H]2N)OC[C@]1(C)O [Genta-C1, gentamicin C1, reference compound]	Providencia sp. Pv 16	1.40
NC[C@H]1O[C@H](O[C@@H]2[C@@H](N)C[C@@H](N)[C@H](O[C@H]3O[C@H](CO)[C@@H](O)[C@H](N)[C@H]3O)C2(F)F)[C@H](N)C[C@@H]1O	Providencia sp. Pv 16	1.10
NC[C@H]1O[C@H](O[C@H]2[C@H](O)[C@@H](O[C@H]3O[C@H](CO)[C@@H](O)[C@H](N)[C@H]3O)[C@H](N)C[C@@H]2N)[C@H](N)[C@@H](O)[C@@H]1O [KMB, kanamycin B, reference compound]	Providencia sp. Pv 16	1.10
NCC[C@H](O)C(=O)N[C@@H]1C[C@H](N)[C@@H](O[C@H]2O[C@H](CN)[C@@H](O)[C@H](O)[C@H]2O)C(F)(F)[C@H]1O[C@H]1O[C@H](CO)[C@@H](O)[C@H](N)[C@H]1O	Providencia sp. Pv 16	0.49

###

Data export: MIC values recorded with Serratia marcescens.
measure.name: MIC

molecule	observed.measurement
NC[C@H]1O[C@H](O[C@@H]2[C@@H](N)C[C@@H](N)[C@H](O[C@H]3O[C@H](CO)[C@@H](O)[C@H](N)[C@H]3O)C2(F)F)[C@H](O)[C@@H](O)[C@@H]1O	12.5 µg/mL
NCC[C@H](O)C(=O)N[C@@H]1C[C@H](N)[C@@H](O[C@H]2O[C@H](CN)CC[C@H]2N)[C@H](F)[C@H]1O[C@H]1O[C@H](CO)[C@@H](O)[C@H](N)[C@H]1O [Compound 5F-DKB-AHB, reference compound]	3.12 µg/mL
NC[C@H]1O[C@H](O[C@@H]2[C@@H](N)C[C@@H](N)[C@H](O[C@H]3O[C@H](CO)[C@@H](O)[C@H](N)[C@H]3O)C2(F)F)[C@H](N)C[C@@H]1O	3.12 µg/mL
CN[C@@H]1[C@@H](O)[C@@H](O[C@@H]2[C@@H](O)[C@H](O[C@H]3O[C@H]([C@@H](C)NC)CC[C@H]3N)[C@@H](N)C[C@H]2N)OC[C@]1(C)O [Genta-C1, gentamicin C1, reference compound]	0.78 µg/mL
